System: NCI-H522
Protocol details: NCI tumour cell line growth inhibition, 48 h
Activity calls are given as the source filed them. No stated cut-off is given here; in the data, active = GI50 up to about 1.1 µM and inactive = higher.
Outcome codes: active, inactive

| Molecule | Class |
| --- | --- |
| COC(=O)c1c(O)ccc2c1c1c(n2Cc2cc(OC)cc(OC)c2)C(=O)c2ccccc2C1=O | inactive |
| O=C1c2cccc3c2C(=O)c2c(cccc21)OCCOCCOCCOCCO3 | inactive |
| C=CCNC(=O)C(C)C1CCC2(C)C=CC(=O)C(C)=C2C1O (stereo not drawn) | inactive |
| CC[C@H]1C=CCC[C@@]2(C[C@@H]3CC[C@@H]4[C@H](C(=O)OCCCCCCCCCCCCCCCC(=O)O)[C@]5(CCC[C@@H](C)O5)NC(=[N+]34)N2)O1 | active |
| O=[N+]([O-])c1cccc2nccc(NCCCO)c12 | inactive |
| O=C1Nc2ccccc2S/C1=C\c1cccc(C(F)(F)F)c1 | inactive |
| COc1c(CC=C(C)C)c(O)c(C(CC(C)C)c2c(O)c(CC=C(C)C)c(O)c(C(C)=O)c2O)c(O)c1C(C)=O (stereo not drawn) | active |
| CCOC(=O)Nc1ccc(S(=O)(=O)OC)cc1.CCOC(=O)Nc1ccc(S(=O)(=O)OC)cc1.NC(=O)NCCO | inactive |

###

System: NCI-H522
Protocol details: NCI tumour cell line growth inhibition, 48 h
Active and inactive are the calls of the source. Cut-off read from the data, not from the text of the source: active = GI50 up to about 1.1 µM and inactive = higher.
Outcome codes: T (active), F (inactive)

| Molecule | Class |
| --- | --- |
| OC1COC(OCc2ccccc2)C(O)C1O (configuration not stated) | F |
| COC1=CC(=O)c2c(c(-c3nc(C)cs3)cn2C)C1=O | T |
| Cn1nc(-c2ccccc2)c(C(=O)/C=C/c2ccc(F)cc2)c(N2CCOCC2)c1=O | F |
| CCCC(=O)Nc1cc(C(=O)N2C[C@H]3C[C@@]34C2=CC(=O)c2[nH]cc(C)c24)n(COC)c1 | T |
| CC(=O)CC1(CBr)Nc2ccc([N+](=O)[O-])cc2NC1=O (configuration not stated) | F |
| COc1ccc(/C=C2\C[C@H]3[C@@H]4CC=C5C[C@@H](OC(C)=O)CC[C@]5(C)[C@H]4CC[C@]3(C)C2=O)cc1OC | F |
| Oc1ccc(CCc2cc(O)cc(O)c2)cc1 [DIHYDRORESVERATROL] | F |
| NC(Cc1ccc(B(O)O)cc1)C(=O)NC(CO)CO (configuration not stated) | F |
| COc1ccc2c(c1)C(OC)C1c3c(cc4c(c3-2)OCO4)CCN1C (configuration not stated) | F |
| Nn1c(=O)n(Cc2ccccc2)n(-c2ccccc2)c1=O | F |
| COc1ccc(/C=N/Nc2nc3ccccc3c(=O)n2-c2ccccc2)cc1 | F |
| O=[N+]([O-])c1ccc(Cl)c(/C=N/C23CC4CC(CC(C4)C2)C3)c1 | F |

###

Test system: RPMI-8226
Protocol details: NCI tumour cell line growth inhibition, 48 h
The source made the active and inactive calls. Cut-off read from the data, not from the text of the source: active = GI50 up to about 1.1 µM and inactive = higher.
Outcome codes: active, inactive

| Compound | Class |
| --- | --- |
| O=[N+]([O-])c1ccc(Nc2cccc3c4cc[nH]c(-c5ccccc5)c-4nc23)c([N+](=O)[O-])c1 | inactive |
| CCOC(=O)CCC(=O)C1c2cccc(O)c2C(=O)c2c(O)cc(C)cc21 (configuration not stated) | active |
| O=Cc1c2ccccc2n2ccc3c4ccccc4[nH]c3c12 | inactive |
| NC1=NC(=O)/C(=C/c2ccccc2[N+](=O)[O-])C(N)=N1 | inactive |
| O=CC(=C(I)I)c1ccccc1 | active |
| COC(=O)[C@@H](N1C(=O)c2ccccc2C1=O)C1(C)CC(Cl)=NO1 (some centres not stated) | inactive |
| O=C1NC(c2c(Cl)cccc2Cl)Nc2ccccc21 (configuration not stated) | inactive |
| Oc1ccc(CCc2cc(O)cc(O)c2)cc1 [DIHYDRORESVERATROL] | inactive |
| CN(C)CCNc1c([N+](=O)[O-])cc2c3c(cccc13)C(=O)N(CCN(C)C)C2=O | inactive |
| CC1=CC=CC(C)(C)CC1(O[Si](C)(C)C)C(F)(F)F (configuration not stated) | inactive |
| CC(=O)c1ccc(NC(=O)/C(CC(=O)c2sc(-c3cccnc3)nc2C)=N/NC(N)=O)cc1 | inactive |
| CC(=O)N1CC(C)(C)c2c(C)c(O)c(C)c(C)c21 | inactive |
| CC(=O)CC1(CBr)Nc2ccc([N+](=O)[O-])cc2NC1=O (configuration not stated) | inactive |
| Cc1ccc(NC(=O)/C=C/c2ccccc2)c(C)c1 | inactive |
| CN(C)C(=O)O/N=C1/C(=C2/C(=O)Nc3ccccc32)Nc2ccccc21 | inactive |
| Cc1ccccc1NC(=S)N/N=C1\C(=O)Nc2ccccc21 | inactive |
| CC(=O)CC(=O)Nc1ccc(OS(N)(=O)=O)cc1 | inactive |
| CSc1ccc2c(c1)c(CCN)c(C)n2Cc1ccccc1Cl | inactive |
| CCOC(=O)C1C[C@H]2CO[C@H](c3ccccc3)N2C1=O (some centres not stated) | inactive |
| COC1(OC)CCC2(C)OC(c3ccccc3)C1O2 (configuration not stated) | inactive |
| C=CCN(CC=C)CC(C(C)=O)C(c1ccccc1)c1c(O)c2ccccc2oc1=O (configuration not stated) | inactive |
| Cc1cc(S(=O)(=O)N=C2N(Cc3ccccc3)CCN2Cc2ccccc2)c(S)cc1Cl | inactive |
| O=C1c2cc3c(cc2CC12Cc1cc4c(cc1C2=O)CCC4)CCC3 | inactive |
| O=C(N/N=C(COc1ccccc1Cl)\N=C\c1cccnc1)c1ccncc1 | inactive |
| CCOC(=O)C(=O)Nc1ccccc1C(C)C | inactive |
| O=CC1=C(C(=O)OC(c2ccccc2)c2ccccc2)N2C(=O)[C@@H](NC(=O)Cc3cccs3)[C@H]2SC1 | inactive |
| CN(C)CC1(Cc2ccccc2)CCC(Cc2ccccc2)C1=O (configuration not stated) | inactive |
| CCOC1Oc2ccccc2-c2nc(N)ncc21 (configuration not stated) | inactive |
| CCOC(=O)COc1ccccc1/C=C1\CCC(CN(C)C)C1=O (configuration not stated) | active |
| O=C1c2cccc3c2C(=O)c2c(cccc21)OCCOCCOCCOCCO3 | inactive |
| Cc1ccccc1NC(=O)/C(=N/NC(=O)CC#N)C1C(=O)N(c2ccccc2)N=C1N (configuration not stated) | inactive |
| O=C1C=Cc2cscc21 | inactive |
